Molecular target: VEGF (soluble stimulus added to cell cultures)
Sequence (P15692 whole entry): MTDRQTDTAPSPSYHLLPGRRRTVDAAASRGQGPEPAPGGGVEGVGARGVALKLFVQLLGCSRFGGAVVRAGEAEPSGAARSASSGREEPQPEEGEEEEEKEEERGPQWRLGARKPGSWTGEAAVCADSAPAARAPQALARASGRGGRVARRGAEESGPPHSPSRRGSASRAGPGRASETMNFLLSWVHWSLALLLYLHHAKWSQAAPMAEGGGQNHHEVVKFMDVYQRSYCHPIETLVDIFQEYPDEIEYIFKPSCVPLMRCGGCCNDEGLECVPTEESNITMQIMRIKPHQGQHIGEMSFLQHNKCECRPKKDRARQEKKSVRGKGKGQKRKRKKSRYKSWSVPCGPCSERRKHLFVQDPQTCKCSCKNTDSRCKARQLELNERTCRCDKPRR
Assay: cell-based or functional assay
valueKind: IC50, proliferation of HDMEC cells +VEGF (5 ng/ml) (nM)
Enter your answer as a number in nM; do not include the unit.

Quick one: give measured IC50, proliferation of HDMEC cells +VEGF (5 ng/ml) for Nb-VF3 (bispecific antibody, Bispecific tandem VHH (VEGF and bFGF); with c-myc and histidine tag) QVQLVESGGGLVQPGGSLRLSCAASGNSAEDRLYNSYTWFRQAPGQGLEAVAAISSHFSAGLTYYADSVKGRFTISRDNSKNTLYLQMNSLRAEDTAVYYCEITSHASHNDAWSTPRTVWGQGTLVTVSSAHHSEDPSSKAPKAPAQVQLVESGGGLVQPGGSLRLSCAASGTEDGRLLTLGGSWFRQAPGQGLEAVAAIGAGDRGGATYYADSVKGRFTISRDNSKNTLYLQMNSLRAEDTAVYYCTALYERQPQLAATKVARKWGQGTLVTVSSAAAGSEQKLISEEDLNSHHHHHH
132

Determine its reported IC50, proliferation of HDMEC cells +VEGF (5 ng/ml): Nb-FV1 (bispecific antibody, Bispecific tandem VHH (bFGF and VEGF); with c-myc and histidine tag) QVQLVESGGGLVQPGGSLRLSCAASGTEDGRLLTLGGSWFRQAPGQGLEAVAAIGAGDRGGATYYADSVKGRFTISRDNSKNTLYLQMNSLRAEDTAVYYCTALYERQPQLAATKVARKWGQGTLVTVSSAHHSEDPSSKAPKAPAQVQLVESGGGLVQPGGSLRLSCAASGNSAEDRLYNSYTWFRQAPGQGLEAVAAISSHFSAGLTYYADSVKGRFTISRDNSKNTLYLQMNSLRAEDTAVYYCEITSHASHNDAWSTPRTVWGQGTLVTVSSAAAGSEQKLISEEDLNSHHHHHH
129

Specify IC50, proliferation of HDMEC cells +VEGF (5 ng/ml) for Nb-V1 (VHH, carries the C-terminal c-myc tracer peptide and histidine tag; also called VHH Nb-V1) VHH: QVQLVESGGGLVQPGGSLRLSCAASGNSAEDRLYNSYTWFRQAPGQGLEAVAAISSHFSAGLTYYADSVKGRFTISRDNSKNTLYLQMNSLRAEDTAVYYCEITSHASHNDAWSTPRTVWGQGTLVTVSS and stop.
116

Return reported IC50, proliferation of HDMEC cells +VEGF (5 ng/ml). Input binder: Nb-VV6 (VHH, Bivalent monospecific tandem VHH for VEGF, hinge spacer with cysteines replaced by alanines; with c-myc and histidine tag) QVQLVESGGGLVQPGGSLRLSCAASGNSAEDRLYNSYTWFRQAPGQGLEAVAAISSHFSAGLTYYADSVKGRFTISRDNSKNTLYLQMNSLRAEDTAVYYCEITSHASHNDAWSTPRTVWGQGTLVTVSSAHHSEDPSSKAPKAPAQVQLVESGGGLVQPGGSLRLSCAASGNSAQDRLYNSYTWFRQAPGQGLEAVAAISSHFSAGLTYYADSVKGRFTISRDNSKNTLYLQMNSLRAEDTAVYYCEITSHASHNDAWSTPRTVWGQGTLVTVSSAAAGSEQKLISEEDLNSHHHHHH
30

Attribution: patent US20250326826A1
